These data points were gathered from patent US20220259315A1.

Molecular target: T1, monkey Fc-PD-1 protein (monkey, UniProt Q15116 25-170 (human entry))
T1 construct: not shown: Fc part not described
T1 chain: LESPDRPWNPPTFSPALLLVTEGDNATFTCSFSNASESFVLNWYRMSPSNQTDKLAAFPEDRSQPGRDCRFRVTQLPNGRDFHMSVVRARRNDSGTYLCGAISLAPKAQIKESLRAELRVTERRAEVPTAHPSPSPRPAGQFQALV
Assay: Biacore, Fab, monkey Fc-PD-1
test-readout: Kd (nM)

- A36443 (Fab, V domains shown, humanized Fab clone of 135C12; also called humanized antibody A36443) VH: EVQLVQSGAEVKKPGATVKISCKVSGYTFTNFYIHWVRQARGQRLEWIGSIYPNYGDTAYNQKFKDRVTITADKSTSTAYMELSSLRSEDTAVYYCARGYSYAMDYWGQGTTVTVSS VL: DIQMTQSPSSVSASVGDRVTITCSASQGISGDLNWYQQKPGQAPRLLIYHTSSLHSGVPSRFSGSGSGTEFTLTISRLEPEDFAVYYCQYYSKDLLTFGGGTKLEIK: 6.16
